Attribution: paper PMC6965684

Target: 5-HT1D receptor (Homo sapiens, UniProt P28221)
Construct: gene HTR1D; full-length human recombinant receptor in CHO-K1 cells (Ogeda); crude membranes
Sequence (P28221 whole entry): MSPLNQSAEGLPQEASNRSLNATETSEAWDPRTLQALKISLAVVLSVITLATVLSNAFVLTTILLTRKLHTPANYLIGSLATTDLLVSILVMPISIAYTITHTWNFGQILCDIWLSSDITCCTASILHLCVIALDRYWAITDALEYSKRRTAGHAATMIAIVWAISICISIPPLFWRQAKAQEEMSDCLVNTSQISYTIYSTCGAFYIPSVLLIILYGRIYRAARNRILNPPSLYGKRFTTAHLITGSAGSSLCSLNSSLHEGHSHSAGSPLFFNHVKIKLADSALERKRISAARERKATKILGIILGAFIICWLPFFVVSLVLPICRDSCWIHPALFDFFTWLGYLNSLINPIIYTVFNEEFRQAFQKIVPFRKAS
Assay: radioligand competition, CHO-K1 membranes
Type: binding
Conditions: read-out: 5-HT1D / pKi (converted)
Counter-ions that a name gives are not always drawn.
# Lookup of reported Ki keyed by entry

compound: CNS(=O)(=O)Cc1ccc2[nH]cc(CCCN3CCN(c4ncncc4OC)CC3)c2c1 [Avitriptan fumarate]
assay-target: 5-HT1D receptor (Homo sapiens, UniProt P28221)
Ki [nM]: 0.776
//
compound: CN1CCC[C@@H]1Cc1c[nH]c2ccc(CCS(=O)(=O)c3ccccc3)cc12 [Eletriptan hydrobromide]
assay-target: 5-HT1D receptor (Homo sapiens, UniProt P28221)
Ki [nM]: 0.102
//
compound: CNS(=O)(=O)CCc1ccc2[nH]cc(C3CCN(C)CC3)c2c1 [Naratriptan hydrochloride]
assay-target: 5-HT1D receptor (Homo sapiens, UniProt P28221)
Ki [nM]: 0.501
//
compound: N#Cc1ccc(N2CCN(C(=O)COc3ccc4[nH]cc(CCN)c4c3)CC2)cc1 [Donitriptan hydrochloride]
assay-target: 5-HT1D receptor (Homo sapiens, UniProt P28221)
Ki [nM]: 0.138
